Molecular target: SLP-76 SH2 (Homo sapiens, UniProt Q13094)
Construct: 2-fold serial dilutions of GADS (10 μM) (A) and SLP-76 (20 μM) (B) SH2 domains over the long CD6 peptides; His tag; made in house; host or cells: Escherichia coli Rosetta(DE3)/pLysS
Sequence (Q13094 422-530 limits assumed): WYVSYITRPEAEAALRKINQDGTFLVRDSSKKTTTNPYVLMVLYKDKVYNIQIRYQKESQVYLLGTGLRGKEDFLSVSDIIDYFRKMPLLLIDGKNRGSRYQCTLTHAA
Assay: SPR equilibrium binding of recombinant SLP-76 SH2 domain to immobilized long CD6 peptides
Conditions: equilibrium binding of soluble recombinant SH2 domain to immobilized long CD6 peptides (~50 RU), 37°C, range, n = 3
Where no end group is shown, it is not given here. [ ]: non-standard residue; d: D form. The star is where a group is joined. Biotin = O=C1N[C@H]2[C@H](CS[C@H]2CCCCC(=O)*)N1; pY = N[C@@H](Cc1ccc(OP(=O)(O)O)cc1)C(=O)O
result_type: Kd

substance	target_of_assay	Kd
Biotin-STSSGEWYQNFQPPPQPPSEEQFGCPGSPSPQPDSTDNDD[pY]DDISAA [pY662]	SLP-76 SH2 (Homo sapiens, UniProt Q13094)	0.3 to 2 µM

Okay, next one:
Request the reported Kd associated with Biotin-STSSGEW[pY]QNFQPPPQPPSEEQFGCPGSPSPQPDSTDNDD[pY]DDISAA [pY629 pY662]
0.3 to 2 µM

These entries and their values trace back to paper PMC5440646.
